Test system: tubulin
assayProcedure: Tubulin binding assay (Tubulin Assay), method of Parness et al.
testParameters: compared to taxol and taxotere
quantity: Tubulin Assay Init. Peak
Reply with the value as a number alone.

Known Tubulin Assay Init. Peak results, listed for orientation:
CC(=O)O[C@H]1C(=O)[C@@]2(C)[C@H]([C@H](OC(=O)c3ccccc3)[C@]3(O)C[C@H](OC(=O)[C@H](O)[C@@H](NC(=O)c4ccc(F)cc4)c4ccc(Cl)cc4)C(C)=C1C3(C)C)[C@]1(OC(C)=O)CO[C@@H]1C[C@@H]2O	63
CC(=O)O[C@H]1C(=O)[C@@]2(C)[C@H]([C@H](OC(=O)c3ccccc3)[C@]3(O)C[C@H](OC(=O)[C@H](O)[C@@H](NC(=O)c4ccc(C(C)(C)C)cc4)c4ccccc4)C(C)=C1C3(C)C)[C@]1(OC(C)=O)CO[C@@H]1C[C@@H]2O	67
CC(=O)O[C@@]12CO[C@@H]1C[C@H](O)[C@@]1(C)C(=O)[C@H](O)C3=C(C)[C@@H](OC(=O)[C@H](O)[C@@H](NC(=O)OC(C)(C)C)c4ccccc4)C[C@@](O)([C@@H](OC(=O)c4ccccc4)[C@H]21)C3(C)C [Taxotere, taxotere, reference compound]	100
CC(=O)O[C@H]1C(=O)[C@@]2(C)[C@H]([C@H](OC(=O)c3ccccc3)[C@]3(O)C[C@H](OC(=O)[C@H](O)[C@@H](NC(=O)c4ccc(Cl)cc4)c4ccc(Cl)cc4)C(C)=C1C3(C)C)[C@]1(OC(C)=O)CO[C@@H]1C[C@@H]2O	35
COc1ccc([C@H](NC(=O)c2ccc(F)cc2)[C@@H](O)C(=O)O[C@H]2C[C@@]3(O)[C@@H](OC(=O)c4ccccc4)[C@@H]4[C@]5(OC(C)=O)CO[C@@H]5C[C@H](O)[C@@]4(C)C(=O)[C@H](OC(C)=O)C(=C2C)C3(C)C)cc1	45
CC(=O)O[C@H]1C(=O)[C@@]2(C)[C@H]([C@H](OC(=O)c3ccccc3)[C@]3(O)C[C@H](OC(=O)[C@H](O)[C@@H](NC(=O)c4ccc(C(C)(C)C)cc4)c4ccc(Cl)cc4)C(C)=C1C3(C)C)[C@]1(OC(C)=O)CO[C@@H]1C[C@@H]2O	13
COc1ccc([C@H](NC(=O)c2ccccc2)[C@@H](O)C(=O)O[C@H]2C[C@@]3(O)[C@@H](OC(=O)c4ccccc4)[C@@H]4[C@]5(OC(C)=O)CO[C@@H]5C[C@H](O)[C@@]4(C)C(=O)[C@H](OC(C)=O)C(=C2C)C3(C)C)cc1OC	11
CC(=O)O[C@H]1C(=O)[C@@]2(C)[C@H]([C@H](OC(=O)c3ccccc3)[C@]3(O)C[C@H](OC(=O)[C@H](O)[C@@H](NC(=O)c4ccc(F)cc4)c4ccc(F)cc4)C(C)=C1C3(C)C)[C@]1(OC(C)=O)CO[C@@H]1C[C@@H]2O	89
CC(=O)O[C@H]1C(=O)[C@@]2(C)[C@H]([C@H](OC(=O)c3ccccc3)[C@]3(O)C[C@H](OC(=O)[C@H](O)[C@@H](NC(=O)c4ccccc4)c4cccc5ccccc45)C(C)=C1C3(C)C)[C@]1(OC(C)=O)CO[C@@H]1C[C@@H]2O	0
COc1ccc([C@H](NC(=O)c2ccccc2)[C@@H](O)C(=O)O[C@H]2C[C@@]3(O)[C@@H](OC(=O)c4ccccc4)[C@@H]4[C@]5(OC(C)=O)CO[C@@H]5C[C@H](O)[C@@]4(C)C(=O)[C@H](OC(C)=O)C(=C2C)C3(C)C)cc1	59

Field: next compound
Consider the compound CC(=O)O[C@H]1C(=O)[C@@]2(C)[C@H]([C@H](OC(=O)c3ccccc3)[C@]3(O)C[C@H](OC(=O)[C@H](O)[C@@H](NC(=O)c4ccc(Br)cc4)c4ccc(Cl)cc4)C(C)=C1C3(C)C)[C@]1(OC(C)=O)CO[C@@H]1C[C@@H]2O and give its recorded Tubulin Assay Init. Peak.
60
